tested on: HL-60; assay: NCI tumour cell line growth inhibition, 48 h
Activity calls are given as the source filed them. No stated cut-off is given here; in the data, active = GI50 up to about 1.1 µM and inactive = higher.
# output must be one of active, inactive

Task: Test call, this compound: C[C@H](N)C(=O)N[C@@H]1[C@H]2C(=C(O)C[C@@H](O)[C@@H]2O)C(=O)O[C@@H]1C
Result: inactive

Task: Next record, please: O/N=C1/C(=C/c2ccc(Oc3ccccc3)cc2)CCCC1C(NO)c1ccc(Oc2ccccc2)cc1 (stereo unspecified)
Result: inactive

Task: Next record, please: N#CC(/C(CCCC(=O)Nc1cccc([N+](=O)[O-])c1)=N/NC(=O)c1cc2ccccc2cc1O)c1ccccc1 (stereo unspecified)
Result: inactive

Task: Next record, please: O=C(Nn1c(-c2ccccc2)nc2ccccc2c1=O)c1ccc([N+](=O)[O-])cc1
Result: inactive

Task: Next record, please: CC(=O)O[C@H]1CC[C@@H](OC(C)=O)[C@H]2[C@H](O)[C@H](O)[C@@H]1n1c(=O)n(-c3ccccc3)c(=O)n12
Result: inactive

Task: Next record, please: CC1(C)C(/C=N\O)=[N+]([O-])C(C)(C)N1O
Result: inactive

Task: Next record, please: CC[N+]1(C)CCC(O)(c2ccccc2)C(C(=O)c2ccccc2)C1 (stereo unspecified)
Result: inactive

Task: Next record, please: COc1cccc(N2C(=O)C3CC(CC(C)(C)C)c4c([nH]c5ccccc45)C3C2=O)c1 (stereo unspecified)
Result: inactive

Task: Next record, please: CC1CC[C@@]2(OC1)OC1C[C@H]3[C@@H]4C/C(=N\N(C)C)[C@@]5(O)CC(O)CC[C@]5(C)[C@H]4CC[C@]3(C)C1[C@@H]2C (stereo partly specified)
Result: inactive

Task: Next record, please: Oc1cc2cc(O)nc(O)c2c(O)n1
Result: inactive

Task: Next record, please: [O-][S+]1c2ccccc2N=C(c2cccc3ccccc23)CC1c1cccc2ccccc12 (stereo unspecified)
Result: inactive

Task: Next record, please: CC(=O)Oc1ccc(O)c2c1CCCC2
Result: inactive

Task: Next record, please: O=c1c(C(c2ccc3ccccc3c2)c2c(O)oc3ccccc3c2=O)c(O)oc2ccccc12
Result: inactive

Task: Next record, please: O=C(OCc1nc2ccc(Br)cc2c(=O)n1-c1ccccc1)c1ccccc1O
Result: inactive

Task: Next record, please: CCOC(=O)CN(Cn1cncn1)Cn1cncn1
Result: inactive

Task: Next record, please: S=C1NCN2CCN(CC2)CNC(=S)C(=S)NCN2CCN(CC2)CNC1=S
Result: inactive

Task: Next record, please: COC1=C(C)C(=O)C2=C(C1=O)[C@@H]1[C@@H]3Cc4c(OC(=O)CO)c(C)c(OC)c(O)c4[C@H](CNC(=O)C(C)=O)N3[C@@H](C#N)[C@H](C2)N1C
Result: active

Task: Next record, please: COc1c2c(c3ccccc3c1O)C1C=CC2C1 (stereo unspecified)
Result: inactive

Task: Next record, please: CC1(C)CC2=C(SC3C=CC=CC3N2)C(=O)C1C(=O)C(N)=O (stereo unspecified)
Result: inactive

Task: Next record, please: CC1=Nc2nc(Cl)cn2C(=O)C1(Cl)Cl
Result: inactive

Task: Next record, please: CC(=O)C1=CN=C2C(=O)N(c3ccccc3)N(C)C12C (stereo unspecified)
Result: inactive

Task: Next record, please: CO[C@H]1CC[C@]2(C)C3=CC[C@@]4(C)C(CC[C@@H]4C(C)CC[C@@H](C)C(C)C)C(=CCC2C1)O3 (stereo partly specified)
Result: inactive

Task: Next record, please: O=C1C[S+]([O-])C23c4cc5ccccc5n4CCC2CCCN13 (stereo unspecified)
Result: inactive

Task: Next record, please: Cc1cc2c(cc1-c1cc3c(cc1C)C(C(C)C)=C(O)C(=O)/C3=C\NCC1CCCN3CCCCC13)/C(=C/NCC1CCCN3CCCCC13)C(=O)C(O)=C2C(C)C (stereo unspecified)
Result: inactive

Task: Next record, please: Oc1[nH]c(Nc2cccc(Br)c2)nc2ncnc1-2
Result: inactive

Task: Next record, please: COc1ccc2cc1Oc1ccc(cc1)CC1c3cc4c(cc3CCN1C)Oc1c(OC)cc3c(c1O4)C(C2)N(C)CC3 (stereo unspecified)
Result: inactive

Taken from ChEMBL document CHEMBL1201862.
